# method-notes: Baboon [^18F]FNDP dynamic PET, baseline scans with kinetic modelling (2TCM, 1TCM, Logan)
# Type: in vivo, baboon (Papio anubis)
# condition-parameters: male, baboon (Papio anubis), brain: hippocampus, intravenous, Hippocampus; baseline, mean ± SD of 3 baboons; read-out: Logan VT
# Protocol: PET images were acquired using a CPS/CTI high-resolution research tomograph (HRRT), which has an axial resolution (FWHM) of 2.4 mm and in-plane resolution of 2.4–2.8 mm. […] These blocking studies were performed 27 to 43 days apart from each other to ensure full animal recovery. The animals had no food for 12 h prior to each PET study. […] Physiological vital signs including heart rate, blood pressure, electrocardiogram, and oxygen saturation were monitored continuously throughout the study. […]
observation-type: Kp

compound="O=C(NCCC(c1ccccc1)c1ccccc1)c1ccc([18F])nc1 [[^18F]FNDP]" value=11

====

# method-notes: Baboon [^18F]FNDP dynamic PET, baseline scans with kinetic modelling (2TCM, 1TCM, Logan)
# Type: in vivo, baboon (Papio anubis)
# condition-parameters: male, baboon (Papio anubis), brain: putamen, intravenous, Putamen; baseline, mean ± SD of 3 baboons; read-out: Logan VT
# Procedure: PET images were acquired using a CPS/CTI high-resolution research tomograph (HRRT), which has an axial resolution (FWHM) of 2.4 mm and in-plane resolution of 2.4–2.8 mm. […] These blocking studies were performed 27 to 43 days apart from each other to ensure full animal recovery. The animals had no food for 12 h prior to each PET study. […] Physiological vital signs including heart rate, blood pressure, electrocardiogram, and oxygen saturation were monitored continuously throughout the study. […]
observation-type: Kp

compound="O=C(NCCC(c1ccccc1)c1ccccc1)c1ccc([18F])nc1 [[^18F]FNDP]" observation_type=Kp value=13.3

====

# method-notes: Baboon [^18F]FNDP dynamic PET, baseline scans with kinetic modelling (2TCM, 1TCM, Logan)
# Type: in vivo, baboon (Papio anubis)
# condition-parameters: male, baboon (Papio anubis), brain: insula, intravenous, Insula; baseline, mean ± SD of 3 baboons; read-out: 2TCM VT
observation-type: Kp

compound="O=C(NCCC(c1ccccc1)c1ccccc1)c1ccc([18F])nc1 [[^18F]FNDP]" observation_type=Kp value=13.8

====

# Tested on: soluble epoxide hydrolase (sEH)
# method-notes: Baboon [^18F]FNDP dynamic PET, baseline scans with kinetic modelling (2TCM, 1TCM, Logan)
# Type: in vivo, baboon (Papio anubis)
# condition-parameters: male, baboon (Papio anubis), brain (cerebellum), intravenous, Cerebellum; baseline, mean ± SD of 3 baboons; read-out: 1TCM VT
observation-type: Kp

molecule="O=C(NCCC(c1ccccc1)c1ccccc1)c1ccc([18F])nc1 [[^18F]FNDP]" value=7.33

====

# method-notes: Baboon [^18F]FNDP dynamic PET, baseline scans with kinetic modelling (2TCM, 1TCM, Logan)
# Format: in vivo, baboon (Papio anubis)
# condition-parameters: male, baboon (Papio anubis), brain: hippocampus, intravenous, Hippocampus; baseline, mean ± SD of 3 baboons; read-out: 2TCM VT
observation-type: Kp

compound="O=C(NCCC(c1ccccc1)c1ccccc1)c1ccc([18F])nc1 [[^18F]FNDP]" value=11.5

====

# method-notes: Baboon [^18F]FNDP dynamic PET, baseline scans with kinetic modelling (2TCM, 1TCM, Logan)
# Assay type: in vivo, baboon (Papio anubis)
# condition-parameters: male, baboon (Papio anubis), brain: thalamus, intravenous, Thalamus; baseline, mean ± SD of 3 baboons; read-out: Logan VT
observation-type: Kp

molecule="O=C(NCCC(c1ccccc1)c1ccccc1)c1ccc([18F])nc1 [[^18F]FNDP]" value=7.87

====

# method-notes: Baboon [^18F]FNDP dynamic PET, baseline scans with kinetic modelling (2TCM, 1TCM, Logan)
# Type: in vivo, baboon (Papio anubis)
# condition-parameters: male, baboon (Papio anubis), brain: amygdala, intravenous, Amygdala; baseline, mean ± SD of 3 baboons; read-out: Logan VT
observation-type: Kp

molecule="O=C(NCCC(c1ccccc1)c1ccccc1)c1ccc([18F])nc1 [[^18F]FNDP]" value=12

====

# Test system: soluble epoxide hydrolase (sEH)
# method-notes: Baboon [^18F]FNDP dynamic PET, baseline scans with kinetic modelling (2TCM, 1TCM, Logan)
# Format: in vivo, baboon (Papio anubis)
# condition-parameters: male, baboon (Papio anubis), brain (globus pallidus), intravenous, Globus pallidus; baseline, mean ± SD of 3 baboons; read-out: Logan VT
observation-type: Kp

molecule="O=C(NCCC(c1ccccc1)c1ccccc1)c1ccc([18F])nc1 [[^18F]FNDP]" observation_type=Kp value=9.44

====

# method-notes: Baboon [^18F]FNDP dynamic PET, baseline scans with kinetic modelling (2TCM, 1TCM, Logan)
# Format: in vivo, baboon (Papio anubis)
# condition-parameters: male, baboon (Papio anubis), brain: putamen, intravenous, Putamen; baseline, mean ± SD of 3 baboons; read-out: 1TCM VT
observation-type: Kp

compound="O=C(NCCC(c1ccccc1)c1ccccc1)c1ccc([18F])nc1 [[^18F]FNDP]" observation_type=Kp value=12.9

====

# method-notes: Baboon [^18F]FNDP dynamic PET, baseline scans with kinetic modelling (2TCM, 1TCM, Logan)
# Type: in vivo, baboon (Papio anubis)
# condition-parameters: male, baboon (Papio anubis), brain: temporal gyrus, intravenous, Temporal gyrus; baseline, mean ± SD of 3 baboons; read-out: 2TCM VT
# Experimental: PET images were acquired using a CPS/CTI high-resolution research tomograph (HRRT), which has an axial resolution (FWHM) of 2.4 mm and in-plane resolution of 2.4–2.8 mm. […] These blocking studies were performed 27 to 43 days apart from each other to ensure full animal recovery. The animals had no food for 12 h prior to each PET study. […] Physiological vital signs including heart rate, blood pressure, electrocardiogram, and oxygen saturation were monitored continuously throughout the study. […]
observation-type: Kp

compound="O=C(NCCC(c1ccccc1)c1ccccc1)c1ccc([18F])nc1 [[^18F]FNDP]" value=9.77

====

# Tested on: soluble epoxide hydrolase (sEH)
# method-notes: Baboon [^18F]FNDP dynamic PET, baseline scans with kinetic modelling (2TCM, 1TCM, Logan)
# Assay type: in vivo, baboon (Papio anubis)
# condition-parameters: male, baboon (Papio anubis), brain (range over regions), intravenous, baseline, 3 baboons
observation-type: total distribution volume (VT, Logan)

compound="O=C(NCCC(c1ccccc1)c1ccccc1)c1ccc([18F])nc1 [[^18F]FNDP]" value="7.63 to 13.3"

====

# method-notes: Baboon [^18F]FNDP dynamic PET, baseline scans with kinetic modelling (2TCM, 1TCM, Logan)
# Format: in vivo, baboon (Papio anubis)
# condition-parameters: male, baboon (Papio anubis), brain: caudate, intravenous, Caudate; baseline, mean ± SD of 3 baboons; read-out: 2TCM VT
observation-type: Kp

compound="O=C(NCCC(c1ccccc1)c1ccccc1)c1ccc([18F])nc1 [[^18F]FNDP]" value=13.9

====

# System: soluble epoxide hydrolase (sEH)
# method-notes: Baboon [^18F]FNDP PET, dose-escalation blocking with AR-9281 (Lassen plot, occupancy)
# Assay type: in vivo, baboon (Papio anubis)
# condition-parameters: male, baboon (Papio anubis), brain, intravenous; read-out: high-dose blocking VT
# Protocol: PET images were acquired using a CPS/CTI high-resolution research tomograph (HRRT), which has an axial resolution (FWHM) of 2.4 mm and in-plane resolution of 2.4–2.8 mm. […] Physiological vital signs including heart rate, blood pressure, electrocardiogram, and oxygen saturation were monitored continuously throughout the study. […] For blocking studies, occupancy of sEH by FNDP was calculated using regional VT values as Eq 1 Occupancy=ΔVT/VTBaseline−VND, […]
observation-type: total distribution volume (VT)

molecule="O=C(NCCC(c1ccccc1)c1ccccc1)c1ccc([18F])nc1 [[^18F]FNDP]" value=1

====

# System: soluble epoxide hydrolase (sEH)
# method-notes: Baboon [^18F]FNDP dynamic PET, baseline scans with kinetic modelling (2TCM, 1TCM, Logan)
# Format: in vivo, baboon (Papio anubis)
# condition-parameters: male, baboon (Papio anubis), brain (cerebellum), intravenous, Cerebellum; baseline, mean ± SD of 3 baboons; read-out: 2TCM VT
# Description: PET images were acquired using a CPS/CTI high-resolution research tomograph (HRRT), which has an axial resolution (FWHM) of 2.4 mm and in-plane resolution of 2.4–2.8 mm. […] These blocking studies were performed 27 to 43 days apart from each other to ensure full animal recovery. The animals had no food for 12 h prior to each PET study. […] Physiological vital signs including heart rate, blood pressure, electrocardiogram, and oxygen saturation were monitored continuously throughout the study. […]
observation-type: Kp

compound="O=C(NCCC(c1ccccc1)c1ccccc1)c1ccc([18F])nc1 [[^18F]FNDP]" observation_type=Kp value=7.66

====

# method-notes: Baboon [^18F]FNDP dynamic PET, baseline scans with kinetic modelling (2TCM, 1TCM, Logan)
# Format: in vivo, baboon (Papio anubis)
# condition-parameters: male, baboon (Papio anubis), brain: insula, intravenous, Insula; baseline, mean ± SD of 3 baboons; read-out: Logan VT
observation-type: Kp

compound="O=C(NCCC(c1ccccc1)c1ccccc1)c1ccc([18F])nc1 [[^18F]FNDP]" observation_type=Kp value=12.8
